TARGET UNDER TEST: T1, human GFRα3 expressed with a C-terminal myc-myc-hexahistidine tag (human, UniProt O60609 32-374, biotinylated (sites not given) in ELISA format 2 and in the Octet cross-competition; not in SPR)
T1 construct: also called hGFRα3-mmh; hGFRα3-mmH
T1 sequence (O60609 other isoform, or with tags, fused parts or gaps limits assumed): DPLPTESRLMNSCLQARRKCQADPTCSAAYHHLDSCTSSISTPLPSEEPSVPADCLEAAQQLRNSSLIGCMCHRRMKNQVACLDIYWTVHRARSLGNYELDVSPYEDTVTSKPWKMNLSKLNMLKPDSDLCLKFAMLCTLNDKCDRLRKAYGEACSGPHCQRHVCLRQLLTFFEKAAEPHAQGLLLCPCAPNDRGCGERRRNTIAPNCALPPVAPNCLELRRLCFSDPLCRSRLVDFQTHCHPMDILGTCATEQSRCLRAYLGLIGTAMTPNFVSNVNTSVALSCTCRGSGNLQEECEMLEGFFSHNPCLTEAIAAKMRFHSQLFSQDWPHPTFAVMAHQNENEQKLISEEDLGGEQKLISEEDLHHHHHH
ASSAY REMARKS: Octet cross-competition; biotin-hGFRα3-mmH pre-saturated with first antibody H4H2352S
TEST READOUT: binding response of second antibody (nm)
Write down the value, and be sure its unit follows.

Use these answered entries as a reference point.
{"BINDER": "H4H2350P (antibody, human IgG4, V domains shown, human IgG4 Fc (H4H)) VH: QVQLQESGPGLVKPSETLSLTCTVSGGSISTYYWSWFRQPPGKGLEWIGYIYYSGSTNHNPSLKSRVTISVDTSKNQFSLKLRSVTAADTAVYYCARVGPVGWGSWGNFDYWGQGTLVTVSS VL: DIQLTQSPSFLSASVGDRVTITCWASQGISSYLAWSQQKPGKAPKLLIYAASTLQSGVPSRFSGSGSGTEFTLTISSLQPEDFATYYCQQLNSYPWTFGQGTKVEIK", "binding response of second antibody (nm)": "1.43 nm"}
{"BINDER": "H4H2243N2 (antibody, human IgG4, V domains shown, human IgG4 Fc (H4H)) VH: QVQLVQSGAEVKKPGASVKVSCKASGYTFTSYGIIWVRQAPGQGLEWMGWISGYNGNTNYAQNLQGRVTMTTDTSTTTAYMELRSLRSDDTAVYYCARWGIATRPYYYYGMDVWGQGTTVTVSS VL: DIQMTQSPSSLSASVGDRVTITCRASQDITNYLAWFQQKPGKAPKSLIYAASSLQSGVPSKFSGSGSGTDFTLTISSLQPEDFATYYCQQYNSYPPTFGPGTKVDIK", "binding response of second antibody (nm)": "0.13 nm"}
{"BINDER": "H4H2291S (antibody, human IgG4, V domains shown, human IgG4 Fc (H4H)) VH: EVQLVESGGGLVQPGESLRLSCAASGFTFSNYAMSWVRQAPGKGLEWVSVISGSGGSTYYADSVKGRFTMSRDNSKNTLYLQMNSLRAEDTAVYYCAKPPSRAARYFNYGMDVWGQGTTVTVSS VL: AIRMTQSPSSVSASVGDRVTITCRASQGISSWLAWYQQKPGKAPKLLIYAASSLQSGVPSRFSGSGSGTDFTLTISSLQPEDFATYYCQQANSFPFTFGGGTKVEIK", "binding response of second antibody (nm)": "2.63 nm"}
{"BINDER": "H4H2357S (antibody, human IgG4, V domains shown, human IgG4 Fc (H4H)) VH: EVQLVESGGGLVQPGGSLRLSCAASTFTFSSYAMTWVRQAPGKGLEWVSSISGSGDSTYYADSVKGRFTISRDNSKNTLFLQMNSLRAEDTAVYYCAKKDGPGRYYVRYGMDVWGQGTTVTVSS VL: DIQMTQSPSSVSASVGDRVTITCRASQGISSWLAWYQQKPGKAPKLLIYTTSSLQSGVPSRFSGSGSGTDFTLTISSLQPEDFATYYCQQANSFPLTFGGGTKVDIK", "binding response of second antibody (nm)": "2.45 nm"}
{"BINDER": "H4H2295S (antibody, human IgG4, V domains shown, human IgG4 Fc (H4H)) VH: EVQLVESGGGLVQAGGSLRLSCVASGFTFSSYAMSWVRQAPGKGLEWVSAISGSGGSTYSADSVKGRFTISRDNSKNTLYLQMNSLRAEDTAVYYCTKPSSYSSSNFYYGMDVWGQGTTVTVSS VL: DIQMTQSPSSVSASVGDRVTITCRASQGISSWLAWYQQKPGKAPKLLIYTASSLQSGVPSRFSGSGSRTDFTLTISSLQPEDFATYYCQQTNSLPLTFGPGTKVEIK", "binding response of second antibody (nm)": "2.31 nm"}

Q: Recorded binding response of second antibody (nm) of H4H2292S (antibody, human IgG4, V domains shown, human IgG4 Fc (H4H)) VH: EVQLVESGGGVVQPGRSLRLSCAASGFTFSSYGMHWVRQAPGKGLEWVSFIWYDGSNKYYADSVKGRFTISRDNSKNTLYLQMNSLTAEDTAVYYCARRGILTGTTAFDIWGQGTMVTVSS VL: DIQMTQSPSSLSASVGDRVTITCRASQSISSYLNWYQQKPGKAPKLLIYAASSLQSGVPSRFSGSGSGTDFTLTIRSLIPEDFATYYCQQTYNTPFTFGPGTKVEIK , please.
A: 0.15 nm

Q: Recorded binding response of second antibody (nm) of H4H2352S (antibody, human IgG4, V domains shown, human IgG4 Fc (H4H); also called H4H2352S-1) VH: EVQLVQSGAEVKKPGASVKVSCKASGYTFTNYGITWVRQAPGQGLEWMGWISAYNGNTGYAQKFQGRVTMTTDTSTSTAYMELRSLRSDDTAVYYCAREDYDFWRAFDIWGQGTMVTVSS VL: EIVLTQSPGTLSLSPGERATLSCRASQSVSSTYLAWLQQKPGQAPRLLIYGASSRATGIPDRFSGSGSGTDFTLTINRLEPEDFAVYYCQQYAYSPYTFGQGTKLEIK , please.
A: 0.1 nm

Q: Recorded binding response of second antibody (nm) of H4H2342P (antibody, human IgG4, V domains shown, human IgG4 Fc (H4H)) VH: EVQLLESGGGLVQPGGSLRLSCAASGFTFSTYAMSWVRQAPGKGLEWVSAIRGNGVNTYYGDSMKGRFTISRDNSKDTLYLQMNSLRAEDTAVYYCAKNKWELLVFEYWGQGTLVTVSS VL: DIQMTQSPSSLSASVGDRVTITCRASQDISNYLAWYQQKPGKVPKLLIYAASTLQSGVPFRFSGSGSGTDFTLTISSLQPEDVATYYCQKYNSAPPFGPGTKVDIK , please.
A: 2.08 nm

Q: Recorded binding response of second antibody (nm) of H4H2236N3 (antibody, human IgG4, V domains shown, human IgG4 Fc (H4H)) VH: EVQLLESGGNLVQPGGSLRLSCAASGFTFSSYAMTWVRQAPGKGLEWVSTISGSGTSTYYADSVKGRFTISRDNSRDTVFLQMNSLRAEDTAVYYCSKPSALRFLHWLAMDVWGQGTLVTVSS VL: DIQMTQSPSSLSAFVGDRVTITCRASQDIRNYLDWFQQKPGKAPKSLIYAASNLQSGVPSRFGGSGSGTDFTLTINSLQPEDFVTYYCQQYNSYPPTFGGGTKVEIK , please.
A: 2.15 nm

Q: Recorded binding response of second antibody (nm) of H4H2294S (antibody, human IgG4, V domains shown, human IgG4 Fc (H4H)) VH: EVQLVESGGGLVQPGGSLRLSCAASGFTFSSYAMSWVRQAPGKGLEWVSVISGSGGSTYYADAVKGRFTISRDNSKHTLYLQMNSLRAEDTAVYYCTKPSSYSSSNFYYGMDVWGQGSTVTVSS VL: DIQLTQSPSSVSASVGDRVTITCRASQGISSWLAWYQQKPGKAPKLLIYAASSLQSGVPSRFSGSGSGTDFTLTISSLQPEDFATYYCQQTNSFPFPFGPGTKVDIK , please.
A: 2.25 nm
